System: OVCAR4
Test: Euclidean distance of Cell Painting phenotypic profile (signed KS, 77 features) to DMSO centroid (dimensionless distance); 5 or 10 uM (library dependent); higher = stronger phenotypic change vs DMSO (phenoactivity)
Details: 48 h
Where a name gives a salt, the structure may show the parent alone.
Recorded Euclidean distance for the following compounds
Keep it simple and answer with nothing but the number.

Completed entries (count: 4):
[
  {
    "compound": "COc1ccccc1N1CCN(CCN2C(=O)CC3(CCCC3)CC2=O)CC1",
    "Euclidean distance": 1.54
  },
  {
    "compound": "CN(C)C(=O)N[C@H]1CC[C@H](CCN2CCN(c3cccc(Cl)c3Cl)CC2)CC1 [Cariprazine HCl]",
    "Euclidean distance": 0.982
  },
  {
    "compound": "c1cnc2cc3c(cc2n1)[C@@H]1CNC[C@H]3C1 [Varenicline Tartrate]",
    "Euclidean distance": 1.05
  },
  {
    "compound": "O=C1CCCC(=O)C1C(=O)c1ccc(C(F)(F)F)cc1[N+](=O)[O-]",
    "Euclidean distance": 1.09
  }
]

Consider the record given below.
Report Euclidean distance for CCOC(=O)/C=C(C)/C=C/C=C(C)/C=C/c1c(C)cc(OC)c(C)c1C [Etretinate] tested on OVCAR4.
1.85
